Catalogue of median fluorescence intensity, fold over isotype control readings, one per entry.
Molecular target: SARS-CoV-2 full length spike protein, D614G mutant (SARS-CoV-2, UniProt P0DTC2 14-1273)
Give the number; fold over isotype is assumed, so skip it.

Q: Using known records, supply median fluorescence intensity, fold over isotype control for antibody 291 (antibody, V domains shown) VH: QVQLVESGGGVVQPGRSLRLSCAASGFTFSSYAMHWVRQAPGKGLEWVAVISYDGSNKYYADSVKGRFTISRDNSKNTLYLQMNSLRAEDTAVYYCARASGGSYFGGMDVWGQGTTVTVSS VL: QSALTQPASVSGSPGQSITISCTGTSSDVGGYNYVSWYQQHPGKAPKLMIYEVSNRPSGVSNRFSGSKSGNTASLTISGLQAEDEADYYCSSYTSSSTLYVFGTGTKVTVL
Ans: 8.03

Q: Consider the binder antibody 287 (antibody, V domains shown) VH: QLQLQESGPGLVKPSETLSLTCTVSGGSISSSSYYWGWIRQPPGKGLEWIGSIFYSGSTYYNPSLKSRVTIFVDTSKNQFSLKLSSVTAADTAVYYCARFDYQVVDLTGFDYWGQGTLVTVSS VL: DIQMTQSPSSLSASVGDRVTITCRASQGIRNDLGWYQQKPGKAPKRLIYAASSLQSGVPSRFSGSGSGTEFTLTIRSLQPEDFATYYCLQYNSYPLTFGGGTKVEIK . State its measured median fluorescence intensity, fold over isotype control.
Ans: 87.4

Q: Hello, please tell me recorded median fluorescence intensity, fold over isotype control for this one: antibody 305 (antibody, V domains shown) VH: QVQLVESGGGVVQPGRSLRLSCAASGFTFSSYAMHWVRQAPGKGLEWVAVISYDGSNKYYADSVKGRFTISRDNSKNTLYLQMNSLRAEDTAVYYCAREQTSYDYVWGTLGAYYYYGMDVWGQGTTVTVSS VL: SSELTQDPAVSVALGQTVRITCQGDSLRSYYASWYQQKPGQAPVLVIYGKNNRPSGIPDRFSGSSSGNTASLTITGAQAEDEADYYCNSRDSSGNHLVFGGGTKLTVL
Ans: 78.9

Q: Give reported median fluorescence intensity, fold over isotype control value for antibody 268 (antibody, V domains shown) VH: QVQLQESGPGLVKPSQTLSLTCTVSGGSISSGSYYWSWIRQPAGKGLEWIGRIYTSGSTNYNPSLKSRVTISVDTSKNQFSLKLSSVTAADTAVYYCARELVGGLLGTIDYWGQGTLVTVSS VL: DIQLTQSPSFLSASVGDRVTITCRASQGISSYLAWYQQKPGKAPKLLIYAASTLQSGVPSRFSGSGSGTEFTLTISSLQPEDFATYYCQQLNSYPYTFGQGTKLEIK
Ans: 8.18
